System: Mitogen-activated protein kinase 14 (Homo sapiens, UniProt Q16539)
Sequence (Q16539 whole entry): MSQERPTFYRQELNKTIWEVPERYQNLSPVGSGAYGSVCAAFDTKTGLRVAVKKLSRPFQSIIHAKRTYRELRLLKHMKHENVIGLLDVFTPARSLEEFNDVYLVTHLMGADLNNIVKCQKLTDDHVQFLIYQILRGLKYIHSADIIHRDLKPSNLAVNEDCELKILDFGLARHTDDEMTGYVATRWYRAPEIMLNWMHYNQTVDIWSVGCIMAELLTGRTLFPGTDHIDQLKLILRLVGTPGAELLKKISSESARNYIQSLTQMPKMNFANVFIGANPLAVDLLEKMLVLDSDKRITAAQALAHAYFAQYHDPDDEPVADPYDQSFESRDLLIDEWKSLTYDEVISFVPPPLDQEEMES
Experiment Summary: Inhibition of MAPK14 (unknown origin) incubated for 1 hr by qPCR analysis
# maps each entry to its IC50
Report only the number, with the unit nM understood.

The following compounds have reported results that may help.
[
  {
    "Chemical Structure": "COc1cccc(-c2nc3sccn3c2-c2ccnc(NCCCNS(=O)(=O)c3cccc(F)c3)n2)c1",
    "Data Value": 88
  },
  {
    "Chemical Structure": "O=S(=O)(NCCCNc1nccc(-c2c(-c3cccc(O)c3)nc3sccn23)n1)c1cccc(F)c1",
    "Data Value": 1780
  },
  {
    "Chemical Structure": "O=S(=O)(NCCNc1nccc(-c2c(-c3cccc(O)c3)nc3sccn23)n1)c1ccc(F)cc1",
    "Data Value": 2010
  },
  {
    "Chemical Structure": "CN1CCN(CCNc2nccc(-c3c(-c4cccc(O)c4)nc4sccn34)n2)S1(=O)=O",
    "Data Value": 1020
  }
]

## Task Could you tell me which IC50 is on file for COc1cccc(-c2nc3sccn3c2-c2ccnc(NCCNS(=O)(=O)c3ccc(C(F)(F)F)cc3)n2)c1 ?
## Result 98

----------
Experiment Summary: Clearance in Sprague-Dawley rat at 5 mg/kg, iv by LC-MS/MS analysis
Type: ADME, organism-based
Test Context: in vivo
Value Type: clearance
Kindly format the answer as number then unit.

## Task Could you tell me which clearance is on file for CN1CCN(CCNc2nccc(-c3c(-c4cccc(O)c4)nc4sccn34)n2)S1(=O)=O ?
## Result 2.07 mL/min/kg

----------
Tested on: Panel melanoma (Carcinoma cell lines)
Experiment Summary: cells
Test Context: Homo sapiens, 48 h, read-out: INH
Value Type: inhibition at 10 µM (%)
Report only the number, with the unit % understood.

[
  {
    "Chemical Structure": "O=S(=O)(NCCCNc1nccc(-c2c(-c3cccc(O)c3)nc3sccn23)n1)c1cccc(F)c1",
    "Data Value": 101
  },
  {
    "Chemical Structure": "COc1cccc(-c2nc3sccn3c2-c2ccnc(NCCCNS(=O)(=O)c3ccc(F)cc3)n2)c1",
    "Data Value": 101
  },
  {
    "Chemical Structure": "O=S(=O)(NCCCNc1nccc(-c2c(-c3ccccc3)nc3sccn23)n1)c1ccc(F)cc1",
    "Data Value": 59.7
  },
  {
    "Chemical Structure": "CC1(C)CN(CCNc2nccc(-c3c(-c4cccc(O)c4)nc4sccn34)n2)S(=O)(=O)N1",
    "Data Value": 79.7
  },
  {
    "Chemical Structure": "COc1ccc(S(=O)(=O)NCCNc2nccc(-c3c(-c4ccccc4)nc4sccn34)n2)cc1",
    "Data Value": 83.8
  }
]

Now for a further compound.
## Task Could you tell me which inhibition at 10 µM is on file for CN1CCCN(CCNc2nccc(-c3c(-c4cccc(O)c4)nc4sccn34)n2)S1(=O)=O ?
## Result 84.8

----------
Consider the following IC50 values measured on Serine/threonine-protein kinase B-raf (Homo sapiens).
Sequence (P15056 whole entry): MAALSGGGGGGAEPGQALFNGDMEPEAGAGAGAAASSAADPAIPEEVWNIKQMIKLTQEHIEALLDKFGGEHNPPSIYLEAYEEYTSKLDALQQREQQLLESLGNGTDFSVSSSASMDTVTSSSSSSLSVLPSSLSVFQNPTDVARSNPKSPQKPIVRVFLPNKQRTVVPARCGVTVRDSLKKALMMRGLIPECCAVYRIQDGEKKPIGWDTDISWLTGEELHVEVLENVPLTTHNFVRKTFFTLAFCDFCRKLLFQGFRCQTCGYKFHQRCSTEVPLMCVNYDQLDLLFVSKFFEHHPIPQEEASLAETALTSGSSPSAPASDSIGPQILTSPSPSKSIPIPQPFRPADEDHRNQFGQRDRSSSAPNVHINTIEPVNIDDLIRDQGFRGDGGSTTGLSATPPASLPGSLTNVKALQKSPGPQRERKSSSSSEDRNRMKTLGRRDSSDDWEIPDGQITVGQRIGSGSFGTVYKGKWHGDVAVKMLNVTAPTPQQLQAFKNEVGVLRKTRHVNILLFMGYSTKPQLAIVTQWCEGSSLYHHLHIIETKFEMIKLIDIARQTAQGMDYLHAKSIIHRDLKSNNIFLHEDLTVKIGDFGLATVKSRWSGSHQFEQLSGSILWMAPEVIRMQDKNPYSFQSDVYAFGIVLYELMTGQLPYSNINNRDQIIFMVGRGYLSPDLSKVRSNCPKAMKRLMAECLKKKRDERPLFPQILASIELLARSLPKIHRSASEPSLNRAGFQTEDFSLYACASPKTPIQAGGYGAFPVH

## Task # returns recorded IC50 (system: Serine/threonine-protein kinase B-raf (Homo sapiens)) for COc1cccc(-c2nc3sccn3c2-c2ccnc(NCCN3CCCN(C(=O)OC(C)(C)C)S3(=O)=O)n2)c1
## Result 23.3 nM

## Task # returns recorded IC50 (system: Serine/threonine-protein kinase B-raf (Homo sapiens)) for COc1cccc(-c2nc3sccn3c2-c2ccnc(NCCCNS(=O)(=O)c3ccc(C)cc3)n2)c1
## Result 894 nM

## Task # returns recorded IC50 (system: Serine/threonine-protein kinase B-raf (Homo sapiens)) for COc1cccc(-c2nc3sccn3c2-c2ccnc(NCCN3CC(C)(C)NS3(=O)=O)n2)c1
## Result 13.7 nM

## Task # returns recorded IC50 (system: Serine/threonine-protein kinase B-raf (Homo sapiens)) for O=S1(=O)N(CCNc2nccc(-c3c(-c4cccc(O)c4)nc4sccn34)n2)CCN1Cc1ccccc1
## Result 15.5 nM
